Data credit: patent US8435978B2

# Target or system: human B1R receptor (Homo sapiens)
# Construct: host or cells: CHO K1 cells (Chinese hamster ovary), stably transfected
# Sequence (P46663 1-353): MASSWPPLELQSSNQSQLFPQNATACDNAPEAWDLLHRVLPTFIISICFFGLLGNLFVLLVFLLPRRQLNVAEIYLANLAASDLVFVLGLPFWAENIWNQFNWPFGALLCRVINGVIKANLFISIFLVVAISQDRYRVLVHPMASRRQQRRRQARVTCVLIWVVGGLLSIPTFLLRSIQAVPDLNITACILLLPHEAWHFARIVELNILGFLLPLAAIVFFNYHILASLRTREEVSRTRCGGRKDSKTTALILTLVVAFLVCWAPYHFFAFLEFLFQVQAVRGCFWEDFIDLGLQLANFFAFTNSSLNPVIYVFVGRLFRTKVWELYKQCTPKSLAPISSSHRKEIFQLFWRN
# Test protocol: Functional study on the bradykinin receptor 1 (B1R), FLIPR Ca2+ assay, hB1R cells
# Type: cell-based
# Conditions used: CHO-K1, test substance 10 μM, agonist Lys-Des-Arg9-bradykinin 0.5 nM, % inhibition compared with the maximum achievable inhibition, read-out: B1R Antagonism, human [10 μM] % Inhibition
# Excerpt: The agonistic or antagonistic action of substances can be quantified on the bradykinin receptor 1 (B1R) of the species human and rat with ectopically expressing cell lines (CHO K1 cells) and with the aid of a Ca^2+-sensitive dye (Fluo-4) using a fluorescent imaging plate reader (FLIPR). […] The agonistic or antagonistic action of substances can be determined on the bradykinin receptor 1 (B1R) of the species human and rat using the following assay. […]
Measured endpoint: inhibition at 10 µM (%)
Respond numerically; units are % and should not be typed.

Here's what some known entries look like.
> print(dat)
                                   compound  quantitative.result
1  COc1cc(C)c(S(=O)(=O)N2CCCCC2COCC(=O)NCCc2cnccn2)c(C)c1 (centres unmarked)                -0.97
2  COc1cc(C)c(S(=O)(=O)N2CCCCC2COCC(=O)N2CCN(c3ncnc4ccsc34)CC2)c(C)c1 (centres unmarked)                 99.2
3  COc1cc(C)c(S(=O)(=O)N2CCCC2COCC(=O)NCCCN2CCCCC2)c(C)c1 (centres unmarked)                 54.2
4  COc1cc(C)c(S(=O)(=O)N2CCCC2COCC(=O)N2CCN(c3ncccc3C#N)CC2)c(C)c1 (centres unmarked)                 98.5
5  COc1cc(C)c(S(=O)(=O)N2CCCC2COCC(=O)Nc2cccc(CN3CCCCC3)c2)c(C)c1 (centres unmarked)                  103

Field inhibition at 10 µM (system: human B1R receptor (Homo sapiens)) for entry COc1cc(C)c(S(=O)(=O)N2CCCC2COCC(=O)N2CCN(c3ccccc3F)CC2)c(C)c1 (centres unmarked) = 101

human B1R receptor (Homo sapiens) inhibition at 10 µM of CN1CCC(N2CCN(C(=O)COCC3CCCCN3S(=O)(=O)c3cc4ccccc4s3)CC2)CC1 (centres unmarked) is 102

Result for Cc1cc(C)c(S(=O)(=O)N2Cc3ccccc3CC2COCC(=O)N2CCN(C3CCN(C)CC3)CC2)c(C)c1 (centres unmarked) , tested on human B1R receptor (Homo sapiens), inhibition at 10 µM: 103
